The reported measurements were obtained from patent US11427548B2.

Molecular target: Androgen Receptor (Homo sapiens, UniProt P10275)
Construct: endogenous in cells; host or cells: VCaP cells
Sequence (P10275 1-920): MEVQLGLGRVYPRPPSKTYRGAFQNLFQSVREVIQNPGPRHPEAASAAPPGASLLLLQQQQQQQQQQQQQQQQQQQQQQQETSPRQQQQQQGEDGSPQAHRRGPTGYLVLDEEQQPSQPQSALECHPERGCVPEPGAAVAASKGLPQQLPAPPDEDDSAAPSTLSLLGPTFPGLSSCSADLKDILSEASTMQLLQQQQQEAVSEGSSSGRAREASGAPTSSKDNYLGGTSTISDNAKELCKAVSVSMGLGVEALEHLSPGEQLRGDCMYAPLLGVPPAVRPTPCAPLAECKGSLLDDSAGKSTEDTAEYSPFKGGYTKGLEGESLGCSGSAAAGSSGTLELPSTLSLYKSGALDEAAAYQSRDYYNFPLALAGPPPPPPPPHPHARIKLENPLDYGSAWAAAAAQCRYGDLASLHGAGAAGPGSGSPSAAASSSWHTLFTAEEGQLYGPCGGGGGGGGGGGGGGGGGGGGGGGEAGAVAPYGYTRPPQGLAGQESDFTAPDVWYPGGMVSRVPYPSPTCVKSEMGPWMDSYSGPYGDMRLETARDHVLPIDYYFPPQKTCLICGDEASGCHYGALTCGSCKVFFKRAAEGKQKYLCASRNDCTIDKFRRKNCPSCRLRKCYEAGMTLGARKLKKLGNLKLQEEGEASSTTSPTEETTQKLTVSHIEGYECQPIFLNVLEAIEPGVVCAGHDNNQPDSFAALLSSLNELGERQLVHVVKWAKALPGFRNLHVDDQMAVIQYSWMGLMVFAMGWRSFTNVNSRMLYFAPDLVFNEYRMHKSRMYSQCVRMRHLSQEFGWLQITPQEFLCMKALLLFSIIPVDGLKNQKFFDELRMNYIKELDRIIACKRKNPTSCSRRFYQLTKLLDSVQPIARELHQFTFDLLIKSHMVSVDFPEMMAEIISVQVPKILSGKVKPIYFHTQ
Assay: Androgen Receptor ELISA assay (PathScan AR ELISA) in VCaP cells: AR degradation, Dmax and DC50
Type: cell-based
Settings: VCaP, read-out: VCaP Dmax (%)
MEASUREMENT NAME: Dmax

Cc1ncsc1-c1ccc(CNC(=O)[C@@H]2C[C@@H](O)CN2C(=O)[C@@H](NC(=O)COCCCOCCCCNc2ccc(N3C(=S)N(c4ccc(C#N)c(C(F)(F)F)c4)C(=O)C3(C)C)cc2)C(C)(C)C)cc1 : 51 to 70%
Cc1ncoc1-c1ccc(CNC(=O)[C@@H]2C[C@@H](O)CN2C(=O)[C@@H](NC(=O)COCCCCOc2ccc(-c3ccc(N4C(=S)N(c5ccc(C#N)c(Cl)c5)C(=O)C4(C)C)cc3)cc2)C(C)(C)C)cc1 : > 71%
Cc1ncsc1-c1ccc([C@H](C)NC(=O)[C@@H]2C[C@@H](O)CN2C(=O)[C@@H](NC(=O)COc2ccc(O[C@H]3CC[C@H](Oc4ccc(N5C(=S)N(c6ccc(C#N)c(C(F)(F)F)c6)C(=O)C5(C)C)cc4)CC3)nc2)C(C)(C)C)cc1 (racemic) : 26 to 50%
Cc1ncsc1-c1ccc(CNC(=O)[C@@H]2C[C@@H](O)CN2C(=O)[C@@H](NC(=O)COCCCCOCCCOc2ccc(N3C(=S)N(c4ccc(C#N)c(C(F)(F)F)c4)C(=O)C3(C)C)cc2F)C(C)(C)C)cc1 : > 71%

// each compound listed below needs its Dmax
1. Cc1ncsc1-c1ccc([C@H](C)NC(=O)[C@@H]2C[C@@H](O)CN2C(=O)[C@@H](NC(=O)COc2ccc(OC3CCN(c4ccc(N5C(=S)N(c6ccc(C#N)c(C(F)(F)F)c6)C(=O)C5(C)C)cc4)CC3)nc2)C(C)(C)C)cc1
2. Cc1ncsc1-c1ccc([C@H](CO)NC(=O)[C@@H]2C[C@@H](O)CN2C(=O)[C@@H](NC(=O)CN2CCC(CN3CCN(c4ccc(C(=O)N[C@H]5C(C)(C)[C@H](Oc6ccc(C#N)c(Cl)c6)C5(C)C)cn4)CC3)CC2)C(C)(C)C)cc1
3. Cc1ncsc1-c1ccc([C@H](C)NC(=O)[C@@H]2C[C@@H](O)CN2C(=O)[C@H](C(C)C)n2cc(Oc3cccc(OCCCCCOc4ccc(N5C(=S)N(c6ccc(C#N)c(C(F)(F)F)c6)C(=O)C5(C)C)cc4)c3)cn2)cc1
4. Cc1ncsc1-c1ccc([C@H](C)NC(=O)C2CC3CN2C(=O)C(C(C)(C)C)NC(=O)COCCCOCCC(CCOc2ccc(N4C(=O)N(c5ccc(C#N)c(C(F)(F)F)c5)C(=O)C4(C)C)cc2)OC(=O)CCCCCn2cc(nn2)CCC(=O)O3)cc1 (stereo partly shown)
5. Cc1ncsc1-c1ccc([C@H](C)NC(=O)[C@@H]2C[C@@H](O)CN2C(=O)[C@@H](NC(=O)CN[C@H]2C[C@@H](N3CCN(c4ccc(C(=O)N[C@H]5C(C)(C)[C@H](Oc6ccc(C#N)c(Cl)c6)C5(C)C)cn4)CC3)C2)C(C)(C)C)cc1

[out]
1: < 25%; 2: > 71%; 3: 26 to 50%; 4: 26 to 50%; 5: 51 to 70%

Quick one: give me Dmax for each item below, same order please.
1. Cc1ncsc1-c1ccc([C@H](C)NC(=O)[C@@H]2C[C@@H](O)CN2C(=O)[C@@H](NC(=O)CCCN(C)[C@H](C(=O)N[C@H](C(=O)N(C)CCOc2ccc(N3C(=S)N(c4ccc(C#N)c(C(F)(F)F)c4)C(=O)C3(C)C)cc2)C(C)C)C(C)C)C(C)(C)C)cc1
2. CC(C)(C)[C@H](NC(=O)COCCCCOc1ccc(-c2ccc(N3C(=S)N(c4ccc(C#N)c(Cl)c4)C(=O)C3(C)C)cc2)cc1)C(=O)N1C[C@H](O)C[C@H]1C(=O)NCc1ccc(-c2cncs2)cc1
3. Cc1ncsc1-c1ccc([C@H](C)NC(=O)[C@@H]2C[C@@H](O)CN2C(=O)[C@@H](NC(=O)COC[C@@H](O)CCOc2ccc(-c3ccc(N4C(=S)N(c5ccc(C#N)c(C(F)(F)F)c5)C(=O)C4(C)C)cc3)cc2)C(C)(C)C)cc1
4. Cc1ncsc1-c1ccc(CNC(=O)[C@@H]2C[C@@H](O)CN2C(=O)[C@@H](C(C)C)n2cc(OCC#CC#CCOc3ccc(N4C(=S)N(c5ccc(C#N)c(C(F)(F)F)c5)C(=O)C4(C)C)cc3)cn2)cc1 (racemic)
5. Cc1ncoc1-c1ccc(CNC(=O)[C@@H]2C[C@@H](O)CN2C(=O)[C@@H](NC(=O)COCCCCOc2ccc(-c3ccc(N4C(=S)N(c5ccc(C#N)c(C(F)(F)F)c5)C(=O)C4(C)C)c(F)c3)cc2)C(C)(C)C)cc1

[out]
["< 25%", "> 71%", "> 71%", "< 25%", "> 71%"]

Give one value of Dmax per listed compound.
1. Cc1ncsc1-c1ccc([C@H](C)NC(=O)[C@@H]2C[C@@H](O)CN2C(=O)[C@H](C(C)C)n2cc(OCCCOCCCCCOc3ccc(N4C(=S)N(c5ccc(C#N)c(C(F)(F)F)c5)C(=O)C4(C)C)cc3)cn2)nc1
2. CC(C)(C)[C@H](NC(=O)COCCCCOc1ccc(-c2ccc(N3C(=S)N(c4ccc(C#N)c(Cl)c4F)C(=O)C3(C)C)cc2)cc1)C(=O)N1C[C@H](O)C[C@H]1C(=O)NCc1ccc(-c2cnco2)cc1

[out]
1. < 25%
2. > 71%
